Target: UniProt:P09874
Sequence (P09874 whole entry): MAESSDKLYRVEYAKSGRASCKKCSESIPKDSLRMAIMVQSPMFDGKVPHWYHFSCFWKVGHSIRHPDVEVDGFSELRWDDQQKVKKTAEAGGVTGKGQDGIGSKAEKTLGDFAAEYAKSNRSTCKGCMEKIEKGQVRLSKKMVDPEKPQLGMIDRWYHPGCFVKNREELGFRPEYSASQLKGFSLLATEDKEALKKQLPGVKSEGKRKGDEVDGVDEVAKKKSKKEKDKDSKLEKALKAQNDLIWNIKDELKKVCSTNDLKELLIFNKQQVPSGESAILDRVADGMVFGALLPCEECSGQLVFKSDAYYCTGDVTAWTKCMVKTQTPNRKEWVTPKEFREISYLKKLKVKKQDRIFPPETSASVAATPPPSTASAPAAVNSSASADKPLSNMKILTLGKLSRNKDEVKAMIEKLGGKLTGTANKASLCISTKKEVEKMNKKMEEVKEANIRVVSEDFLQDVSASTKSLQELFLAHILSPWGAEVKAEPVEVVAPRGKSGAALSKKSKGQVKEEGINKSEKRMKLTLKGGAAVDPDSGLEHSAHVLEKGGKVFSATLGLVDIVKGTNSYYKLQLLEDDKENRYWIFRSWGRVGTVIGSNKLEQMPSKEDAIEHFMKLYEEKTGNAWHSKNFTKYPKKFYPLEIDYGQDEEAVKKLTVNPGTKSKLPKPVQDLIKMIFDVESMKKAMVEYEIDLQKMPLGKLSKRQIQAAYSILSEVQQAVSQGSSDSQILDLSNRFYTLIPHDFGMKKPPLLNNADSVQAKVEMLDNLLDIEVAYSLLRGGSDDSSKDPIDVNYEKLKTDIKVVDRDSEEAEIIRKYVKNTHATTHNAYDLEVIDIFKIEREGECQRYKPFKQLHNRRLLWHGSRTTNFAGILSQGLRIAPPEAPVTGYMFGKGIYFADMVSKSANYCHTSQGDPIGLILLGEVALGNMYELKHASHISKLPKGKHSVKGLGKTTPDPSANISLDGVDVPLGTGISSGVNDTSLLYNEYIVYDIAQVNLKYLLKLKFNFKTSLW
Assay: Inhibition of human recombinant PARP-1
pIC50: −log10 of the molar value.
quantity_measured: pIC50

Some solved cases for reference:
Q) Give pIC50 (UniProt:P09874) of the following compound: `O=c1[nH]c(CCCN2CCC(c3ccccc3)CC2)nc2c(Cl)cccc12`
A) 7.64

Q) Hi! What's the reported pIC50 for `O=c1[nH]c(CCCN2CCN(c3ccccc3)CC2)nc2cccc(Cl)c12` on UniProt:P09874?
A) 7.96

Q) Query for UniProt:P09874: what pIC50 does the record show for `O=c1[nH]c(CCCN2CCC(c3ccccc3)CC2)nc2ccccc12` ?
A) 7.68

[1] Cc1cccc2c(=O)[nH]c(CCCN3CCC(c4ccc(F)cc4)CC3)nc12
[2] O=c1[nH]c(CCCN2CCC(c3ccccc3)CC2)nc2cccc(Cl)c12
[3] N#Cc1ccc(C2CCN(CCCc3nc4c(Cl)cccc4c(=O)[nH]3)CC2)cc1
Q) Write the entries in order, lowest recorded pIC50 first. Form field (ranking): labels in requested order.
A) 2, 1, 3
(2: 7.17, 1: 7.80, 3: 8.52)
